# ASSAY COMMENT: Toxicity liver stage against HepG2, at 10uM
# Assay type: cell-based
# Set-up: test concentration 10 uM, cell line HepG2-A16-CD81EGFP
# CONDITIONS: human, HepG2-A16-CD81EGFP cells; read-out: INHIBITION
VALUE KIND: cytotoxicity at 10 µM (%)
Just the number in %, nothing appended.

Sample records with cytotoxicity at 10 µM:
[[record]]
molecule = "CC(CO)(CO)NC(=O)C1CCC(=O)N(Cc2ccc(Cl)cc2)C1 (stereo unspecified)"
value_kind = "cytotoxicity at 10 µM"
readout_units = "%"
observed_value = -4.71

[[record]]
molecule = "COc1cccc2c1OCC(CNC(=O)Cc1c(C)nc(N)nc1C)C2 (stereo unspecified)"
value_kind = "cytotoxicity at 10 µM"
readout_units = "%"
observed_value = -140

[[record]]
molecule = "CCOc1ccc(CN(C)C(=O)NC(C)c2nncn2C)cc1 (stereo unspecified)"
value_kind = "cytotoxicity at 10 µM"
readout_units = "%"
observed_value = 8.62

[[record]]
molecule = "CC(NC(=O)NCC(C)(C)O)c1ccc(-c2cncnc2)cc1 (stereo unspecified)"
value_kind = "cytotoxicity at 10 µM"
readout_units = "%"
observed_value = 6.27

[[record]]
molecule = "CC(=O)N[C@@H]1CN(Cc2nccn2C)C[C@H]1c1ccc(C)cc1"
value_kind = "cytotoxicity at 10 µM"
readout_units = "%"
observed_value = 14.1


// below: cytotoxicity at 10 µM requested for another molecule
**Query** Look up cytotoxicity at 10 µM: O=C(c1csc(-c2ccco2)n1)N1CCOc2ncccc21
**Result** 10.2
